Target: GAβ-dependent amyloid fibril formation (Human Aβ1-40 + GM1-containing liposome) (Homo sapiens)
Construct: Human Aβ1-40 (cat. #4307-v, prepared by Peptide Institute); purchased Peptide Institute 4307-v
Sequence (P05067 672-711 limits assumed): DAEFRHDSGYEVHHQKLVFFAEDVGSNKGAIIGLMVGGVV
Test: Thioflavin T (ThT) assay of GAβ-dependent amyloid fibril formation (Aβ1-40 with GM1-containing liposome)
Assay type: biochemical
Details: @25 μM; read-out: ThT Inhibitory activity (% inhibition)
reportedEndpoint: inhibition at 25 µM (%)

NC(Cc1c[nH]c2ccccc12)c1nc(-c2ccc3c(c2)OC(F)(F)O3)no1 (centres unmarked) : 80
O=C(N[C@@H](CO)c1nc(-c2c[nH]c3ncccc23)no1)c1ccc(F)cc1 : 71
COc1ccc(-c2noc([C@@H](N)Cc3c[nH]c4ccccc34)n2)cc1 : 86
O=C(N[C@@H](CO)c1nc(-c2ccc(C(F)F)cc2)no1)c1ccc(Cl)cc1 : 98
O=C(N[C@@H](CO)c1nc(-c2ccc(C(F)(F)F)cc2)no1)c1ccccc1 : 85
O=C(N[C@@H](CO)c1nc(-c2c[nH]c3ccccc23)no1)c1ccc(F)cc1 : 89
O=C(N[C@@H](CO)c1nc(-c2ccc(OC(F)(F)F)cc2)no1)c1cccc(Cl)c1 : 99
O=C(N[C@@H](CO)c1nnc(-c2ccc(OC(F)(F)F)cc2)o1)c1ccc(Cl)cc1 : 75

A. COCCCNC(=O)c1ccc(-c2noc([C@H](CO)NC(=O)c3ccc(F)cc3)n2)cc1
B. CC(=O)c1ccc(-c2noc([C@H](CO)NC(=O)c3ccccc3)n2)cc1
Among A and B , whose measured inhibition at 25 µM is the smaller figure? Answer with the label corresponding to your selection.
A

###

Molecular target: GAβ-dependent amyloid fibril formation (Human Aβ1-40 + GM1-containing liposome) (Homo sapiens)
Construct: Human Aβ1-40 (cat. #4307-v, prepared by Peptide Institute); purchased Peptide Institute 4307-v
Test: Thioflavin T (ThT) assay of GAβ-dependent amyloid fibril formation (Aβ1-40 with GM1-containing liposome)
Type: biochemical
Conditions: inhibition rate against amyloid fibril formation, final concentration of the compound 25 μM; read-out: Inhibitory activity ABC evaluation
reportedEndpoint: inhibition at 25 µM

CCOCCOc1ccc(C(=O)N[C@@H](CO)c2nc(-c3ccc(C(F)(F)F)cc3)no2)cc1 [Compound 170] : 40 to 80%
O=C1CC(c2nc(-c3ccccc3OC(F)(F)F)no2)CN1c1ccc(Cl)cc1 (centres unmarked) [Compound 67] : 40 to 80%
O=C(N[C@@H](CO)c1nc(-c2cccc(C(F)(F)F)c2)no1)c1c[nH]c2ccccc12 [Compound 243] : < 40%

GET /value?item= COc1ccc(-c2noc(C3CC(=O)N(c4ccc(Cl)cc4)C3)n2)cn1 (centres unmarked) [Compound 54] &field=inhibition at 25 µM returns 40 to 80%

GET /value?item= O=C(N[C@@H](CO)c1nc(-c2ncccn2)no1)c1ccc(F)cc1 [Compound 246] &field=inhibition at 25 µM returns 40 to 80%

###

Target: GAβ-dependent amyloid fibril formation (Human Aβ1-40 + GM1-containing liposome) (Homo sapiens)
Construct: Human Aβ1-40 (cat. #4307-v, prepared by Peptide Institute); purchased Peptide Institute 4307-v
Test: Thioflavin T (ThT) assay of GAβ-dependent amyloid fibril formation (Aβ1-40 with GM1-containing liposome)
Type: biochemical
Settings: inhibition rate against amyloid fibril formation, final concentration of the compound 25 μM; read-out: Inhibitory activity ABC evaluation
reportedEndpoint: inhibition at 25 µM

Reference set, count: 5
O=C1CC(c2nc(-c3ccc(OC(F)(F)F)cc3)no2)CN1c1ccc(Cl)cn1 (stereo not shown) [Compound 49] : 40 to 80%
O=C(N[C@@H](CO)c1nc(-c2c[nH]c3ccc(F)cc23)no1)c1ccc(F)cc1 [Compound 234] : 40 to 80%
O=C(N[C@@H](CO)c1nc(-c2c[nH]c3ccc(C(F)(F)F)cc23)no1)c1ccc(F)cc1 [Compound 262] : 40 to 80%
O=C(N[C@@H](CO)c1nc(-c2cccc(C(F)(F)F)c2)no1)c1cc2ccccc2[nH]1 [Compound 223] : 40 to 80%
CS(=O)(=O)Nc1ccc(-c2noc(C3CC(=O)N(c4ccc(Cl)cc4)C3)n2)cc1 (stereo not shown) [Compound 65] : 40 to 80%

GET /value?item= O=C(N[C@@H](CO)c1nc(-c2c[nH]c3cc(F)ccc23)no1)c1ccc(F)cc1 [Compound 260] &field=inhibition at 25 µM returns 40 to 80%

GET /value?item= CN(Cc1cccc(F)c1)C(=O)CCc1nc(-c2ccc(O)cc2)no1 [Compound 14] &field=inhibition at 25 µM returns < 40%

GET /value?item= CS(=O)(=O)Nc1ccc(-c2nnc([C@@H](CO)NC(=O)c3ccc(Cl)cc3)o2)cc1 [Compound 108] &field=inhibition at 25 µM returns < 40%

GET /value?item= O=C(N[C@@H](CO)c1nc(-c2ccc(OC(F)(F)F)cc2)no1)c1ccccc1 [Compound 92] &field=inhibition at 25 µM returns > 80%

GET /value?item= O=C(N[C@@H](CO)c1nc(-c2ccc(C(=O)C(F)(F)F)cc2)no1)c1ccccc1 [Compound 165] &field=inhibition at 25 µM returns > 80%

GET /value?item= CN(Cc1ccccc1)C(=O)CCc1nc(-c2ccc3c(c2)OCCO3)no1 [Compound 16] &field=inhibition at 25 µM returns < 40%

###

This listing pairs compounds with measured inhibition at 25 µM.
Molecular target: GAβ-dependent amyloid fibril formation (Human Aβ1-40 + GM1-containing liposome) (Homo sapiens)
Construct: Human Aβ1-40 (cat. #4307-v, prepared by Peptide Institute); purchased Peptide Institute 4307-v
Assay: Thioflavin T (ThT) assay of GAβ-dependent amyloid fibril formation (Aβ1-40 with GM1-containing liposome)
Format: biochemical
Settings: inhibition rate against amyloid fibril formation, final concentration of the compound 25 μM; read-out: Inhibitory activity ABC evaluation

O=C(N[C@H](CO)c1nc(-c2ccc(C(F)(F)F)cc2)no1)c1ccc(F)cc1 [Compound 212] : 40 to 80%
O=C(N[C@@H](CO)c1nc(-c2ccc(C(F)(F)F)cc2)no1)c1ccc(Cl)cc1 [Compound 129] : > 80%
O=C1CC(c2nc(-c3ccc(O)c(F)c3)no2)CN1c1ccc(Cl)cc1 (stereo not shown) [Compound 74] : 40 to 80%
O=C(N[C@@H](CO)c1nc(-c2n[nH]c3ccccc23)no1)c1ccc(F)cc1 [Compound 265] : 40 to 80%
O=C(N[C@@H](CO)c1nc(-c2ccc(O)cc2F)no1)c1ccccc1 [Compound 142] : 40 to 80%

GET /value?item= O=C(N[C@@H](CO)c1nc(-c2ccc3cc[nH]c3c2)no1)c1ccc(F)cc1 [Compound 250] &field=inhibition at 25 µM returns 40 to 80%

GET /value?item= O=C(N[C@@H](CO)c1nc(-c2ccc(C(F)(F)F)cc2)no1)c1ccc(N2CCOCC2)cc1 [Compound 200] &field=inhibition at 25 µM returns 40 to 80%

GET /value?item= N#Cc1cccc(-c2nnc([C@H](CO)NC(=O)c3ccc(Cl)cc3)o2)c1 [Compound 106] &field=inhibition at 25 µM returns 40 to 80%

GET /value?item= O=C(N[C@@H](CO)c1nc(-c2ccc(OCCO)cc2)no1)c1ccccc1 [Compound 156] &field=inhibition at 25 µM returns 40 to 80%

GET /value?item= COc1ccc(-c2noc(C3CC(=O)N(c4ccc(Cl)cc4)C3)n2)cc1 (stereo not shown) [Compound 24] &field=inhibition at 25 µM returns 40 to 80%

GET /value?item= CS(=O)(=O)Nc1ccc(-c2nnc([C@H](CO)NC(=O)c3ccc(Cl)cc3)o2)cc1 [Compound 105] &field=inhibition at 25 µM returns < 40%

GET /value?item= O=C(N[C@@H](CO)c1nc(-c2ccc3ccccc3n2)no1)c1ccc(F)cc1 [Compound 225] &field=inhibition at 25 µM returns 40 to 80%

GET /value?item= O=C1CC(c2nc(-c3ccc(OC(F)(F)F)cc3)no2)CN1c1ccc(Cl)cc1F (stereo not shown) [Compound 28] &field=inhibition at 25 µM returns 40 to 80%

###

This listing pairs compounds with measured inhibition at 25 µM.
Target: GAβ-dependent amyloid fibril formation (Human Aβ1-40 + GM1-containing liposome) (Homo sapiens)
Construct: Human Aβ1-40 (cat. #4307-v, prepared by Peptide Institute); purchased Peptide Institute 4307-v
Assay: Thioflavin T (ThT) assay of GAβ-dependent amyloid fibril formation (Aβ1-40 with GM1-containing liposome)
Type: biochemical
Conditions: inhibition rate against amyloid fibril formation, final concentration of the compound 25 μM; read-out: Inhibitory activity ABC evaluation

COc1ccc(CN2CC(c3nc(-c4ccc(OC(F)(F)F)cc4)no3)CC2=O)cc1 (centres unmarked) : 40 to 80%
O=C(NC(CO)c1nc(-c2ccc(OC(F)(F)F)cc2)no1)c1c[nH]c2ccccc12 (centres unmarked) : 40 to 80%
CC(C)(NC(=O)c1ccc(Cl)cc1)c1nc(-c2ccc(OC(F)(F)F)cc2)no1 : 40 to 80%
O=C(N[C@@H](CO)c1nc(-c2ccc(CF)cc2)no1)c1ccc(F)cc1 : 40 to 80%
O=C(Cc1ccc(F)cc1)NC(CO)c1nc(-c2ccc(C(F)(F)F)cc2)no1 (centres unmarked) : 40 to 80%

GET /value?item= O=C1CC[C@@H](c2nc(-c3ccc(OC(F)(F)F)cc3)no2)N1C(=O)c1ccc(Cl)cc1 &field=inhibition at 25 µM returns 40 to 80%

GET /value?item= O[C@@H]1C[C@@H](c2nc(-c3ccc(OC(F)(F)F)cc3)no2)N(Cc2ccc(Cl)cc2)C1 &field=inhibition at 25 µM returns 40 to 80%

GET /value?item= O=C(N[C@@H](CO)c1nc(-c2ccc(C(F)(F)F)cc2)no1)c1ccccc1 &field=inhibition at 25 µM returns > 80%

GET /value?item= Nc1n[nH]cc1-c1noc([C@H](CO)NC(=O)c2ccc(F)cc2)n1 &field=inhibition at 25 µM returns 40 to 80%

GET /value?item= O=C1CC(c2nc(-c3ccc(OCF)cc3)no2)CN1c1ccc(Cl)cc1 (centres unmarked) &field=inhibition at 25 µM returns 40 to 80%

GET /value?item= Cn1cc(-c2noc([C@H](CO)NC(=O)c3ccc(F)cc3)n2)c2ccccc21 &field=inhibition at 25 µM returns 40 to 80%

GET /value?item= O=C(N[C@@H](CO)c1nc(-c2ccc(Br)cc2)no1)c1ccc(F)cc1 &field=inhibition at 25 µM returns 40 to 80%

GET /value?item= O=C(N[C@@H](CCO)c1nc(-c2ccc(OC(F)(F)F)cc2)no1)c1ccc(Cl)cc1 &field=inhibition at 25 µM returns 40 to 80%

GET /value?item= O=C(N[C@@H](CO)c1nc(-c2ccc(C(F)(F)F)cc2)no1)c1ccc(Cl)s1 &field=inhibition at 25 µM returns > 80%

GET /value?item= O=C(CCc1nc(-c2ccc3c(c2)OCCO3)no1)N1CCc2ccccc2C1 &field=inhibition at 25 µM returns 40 to 80%

GET /value?item= O=C1CC(c2nc(-c3ccc(F)cc3)no2)CN1c1ccc(Cl)cc1 (centres unmarked) &field=inhibition at 25 µM returns 40 to 80%

GET /value?item= O=C(N[C@@H](CO)c1nc(-c2cc(Cl)sc2Cl)no1)c1ccc(F)cc1 &field=inhibition at 25 µM returns 40 to 80%
